Source listed as ChEMBL document CHEMBL1141406.

protocol.notes: Bioavailability in rat at 10 mg/kg, po and 1 mg/kg, iv
Assay type: ADME, organism-based
assay.setup: in vivo
recorded.endpoint: bioavailability (%)
Numbers only, in %.

Form: molecule = "CCOC(=O)N1CCC(NS(=O)(=O)c2ccc(NC(=O)c3ccccc3C)c3ccccc23)CC1" ; bioavailability = 2

====

protocol.notes: Apparent permeability from basolateral to apical side of Caco-2 cells
Assay type: ADME, cell-based
assay.setup: human
recorded.endpoint: Papp B→A (×10⁻⁶ cm/s)
One number for each entry, in ×10⁻⁶ cm/s.

Would you please look over these solved cases?
[[record]]
line_notation = "CCNC(=O)N1CCC(NS(=O)(=O)c2ccc(NC(=O)c3ccccc3C)c3ccccc23)CC1"
recorded_endpoint = "Papp B→A"
test_value = 22

[[record]]
line_notation = "CCOC(=O)N1CCC(NS(=O)(=O)c2ccc(NC(=O)c3ccccc3C)c3ccccc23)CC1"
recorded_endpoint = "Papp B→A"
test_value = 24


// next item, Papp B→A requested
So for "CCCC(=O)N1CCC(NS(=O)(=O)c2ccc(NC(=O)c3ccccc3C)c3ccccc23)CC1" , the logged Papp B→A turned out to be 34
